Assay Target: PI3K β (p110β/p85α) (Homo sapiens)
Sequence (P42338 whole entry): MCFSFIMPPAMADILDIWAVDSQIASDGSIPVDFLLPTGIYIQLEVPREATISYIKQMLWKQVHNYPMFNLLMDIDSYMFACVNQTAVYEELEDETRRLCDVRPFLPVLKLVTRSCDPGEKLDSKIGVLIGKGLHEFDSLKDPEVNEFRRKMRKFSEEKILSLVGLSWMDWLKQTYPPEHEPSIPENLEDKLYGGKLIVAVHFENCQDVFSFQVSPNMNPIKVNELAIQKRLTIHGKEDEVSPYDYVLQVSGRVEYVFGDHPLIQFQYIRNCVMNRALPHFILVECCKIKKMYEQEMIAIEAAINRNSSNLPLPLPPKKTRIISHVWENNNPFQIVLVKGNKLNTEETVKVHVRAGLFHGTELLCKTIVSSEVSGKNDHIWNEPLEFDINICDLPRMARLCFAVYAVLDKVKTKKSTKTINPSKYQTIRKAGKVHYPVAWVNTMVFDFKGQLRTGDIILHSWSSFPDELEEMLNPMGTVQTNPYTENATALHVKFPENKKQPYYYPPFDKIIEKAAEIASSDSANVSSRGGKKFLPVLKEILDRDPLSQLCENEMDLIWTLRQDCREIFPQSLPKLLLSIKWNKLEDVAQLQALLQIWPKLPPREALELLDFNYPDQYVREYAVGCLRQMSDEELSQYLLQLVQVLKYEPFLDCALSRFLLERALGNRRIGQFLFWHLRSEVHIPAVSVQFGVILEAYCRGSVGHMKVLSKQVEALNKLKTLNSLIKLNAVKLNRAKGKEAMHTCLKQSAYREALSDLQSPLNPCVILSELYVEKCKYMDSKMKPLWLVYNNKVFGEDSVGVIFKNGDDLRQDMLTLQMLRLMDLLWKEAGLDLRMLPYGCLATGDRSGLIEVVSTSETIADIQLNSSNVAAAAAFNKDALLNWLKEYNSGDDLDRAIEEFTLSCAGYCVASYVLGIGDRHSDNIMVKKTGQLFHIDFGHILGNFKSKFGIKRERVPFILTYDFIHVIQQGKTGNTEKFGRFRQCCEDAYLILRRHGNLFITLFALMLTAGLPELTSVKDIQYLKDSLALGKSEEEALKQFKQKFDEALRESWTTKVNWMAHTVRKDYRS
Sequence (P27986 whole entry partner): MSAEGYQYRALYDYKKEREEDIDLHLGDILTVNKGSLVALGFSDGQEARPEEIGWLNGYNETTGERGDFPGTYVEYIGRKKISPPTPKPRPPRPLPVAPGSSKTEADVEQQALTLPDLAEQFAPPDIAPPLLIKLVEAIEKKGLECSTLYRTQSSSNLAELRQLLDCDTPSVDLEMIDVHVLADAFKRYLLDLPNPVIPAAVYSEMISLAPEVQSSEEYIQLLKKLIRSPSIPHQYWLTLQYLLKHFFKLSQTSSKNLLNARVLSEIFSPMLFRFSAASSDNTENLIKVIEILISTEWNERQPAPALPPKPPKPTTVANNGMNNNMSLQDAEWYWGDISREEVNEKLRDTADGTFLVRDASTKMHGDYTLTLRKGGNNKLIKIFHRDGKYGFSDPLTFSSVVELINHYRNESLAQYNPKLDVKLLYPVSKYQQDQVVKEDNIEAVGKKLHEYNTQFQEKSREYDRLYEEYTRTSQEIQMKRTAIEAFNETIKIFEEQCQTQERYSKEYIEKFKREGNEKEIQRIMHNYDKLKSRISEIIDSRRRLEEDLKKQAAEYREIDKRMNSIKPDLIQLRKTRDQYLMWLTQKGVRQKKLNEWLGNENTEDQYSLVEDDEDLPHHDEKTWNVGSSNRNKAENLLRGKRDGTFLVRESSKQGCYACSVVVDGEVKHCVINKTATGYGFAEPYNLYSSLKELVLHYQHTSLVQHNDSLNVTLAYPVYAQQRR
Assay: PI3K β (p110β/p85α) inhibition assay
Experimental: Class I PI3-Ks can be either purchased (p110α/p85α, p110β/p85α, p110δ/p85α from Upstate, and p110γ from Sigma) or expressed as previously described (Knight at al., 2004). IC50 values are measured using either a standard TLC assay for lipid kinase activity (described below) or a high-throughput membrane capture assay. […] The TLC plates are then dried, exposed to a phosphorimager screen (Storm, Amersham), and quantitated. […]
pIC50: −log10 of the molar value.
Listed compounds paired with reported pIC50

## Input Query: pIC50; subject: Cc1nc(N)nc2ccc(-c3cccc(O)c3)cc12
## Output > 6.30

## Input Param item: CNc1nc(C)c2cc(-c3cc(O)cc(F)c3)ccc2n1
## Output > 6.00

## Input Param item: CNc1nc(C)c2cc(-c3cccc(O)c3)ccc2n1
## Output < 6.00

## Input Param item: Cc1nc(Nc2cccnc2)nc2ccc(-c3cccc(O)c3)cc12
## Output < 6.00

## Input Param item: Cc1nc(Nc2cccnc2)nc2ccc(-c3cc(O)cc(F)c3)cc12
## Output < 6.00

## Input Param item: CNc1nc(C)c2cc(-c3cnc4[nH]ccc4c3)ccc2n1
## Output < 6.00

* * *

Assay Target: PI3K α (p110α/p85α) (Homo sapiens)
Sequence (P42336 whole entry, one chain of several): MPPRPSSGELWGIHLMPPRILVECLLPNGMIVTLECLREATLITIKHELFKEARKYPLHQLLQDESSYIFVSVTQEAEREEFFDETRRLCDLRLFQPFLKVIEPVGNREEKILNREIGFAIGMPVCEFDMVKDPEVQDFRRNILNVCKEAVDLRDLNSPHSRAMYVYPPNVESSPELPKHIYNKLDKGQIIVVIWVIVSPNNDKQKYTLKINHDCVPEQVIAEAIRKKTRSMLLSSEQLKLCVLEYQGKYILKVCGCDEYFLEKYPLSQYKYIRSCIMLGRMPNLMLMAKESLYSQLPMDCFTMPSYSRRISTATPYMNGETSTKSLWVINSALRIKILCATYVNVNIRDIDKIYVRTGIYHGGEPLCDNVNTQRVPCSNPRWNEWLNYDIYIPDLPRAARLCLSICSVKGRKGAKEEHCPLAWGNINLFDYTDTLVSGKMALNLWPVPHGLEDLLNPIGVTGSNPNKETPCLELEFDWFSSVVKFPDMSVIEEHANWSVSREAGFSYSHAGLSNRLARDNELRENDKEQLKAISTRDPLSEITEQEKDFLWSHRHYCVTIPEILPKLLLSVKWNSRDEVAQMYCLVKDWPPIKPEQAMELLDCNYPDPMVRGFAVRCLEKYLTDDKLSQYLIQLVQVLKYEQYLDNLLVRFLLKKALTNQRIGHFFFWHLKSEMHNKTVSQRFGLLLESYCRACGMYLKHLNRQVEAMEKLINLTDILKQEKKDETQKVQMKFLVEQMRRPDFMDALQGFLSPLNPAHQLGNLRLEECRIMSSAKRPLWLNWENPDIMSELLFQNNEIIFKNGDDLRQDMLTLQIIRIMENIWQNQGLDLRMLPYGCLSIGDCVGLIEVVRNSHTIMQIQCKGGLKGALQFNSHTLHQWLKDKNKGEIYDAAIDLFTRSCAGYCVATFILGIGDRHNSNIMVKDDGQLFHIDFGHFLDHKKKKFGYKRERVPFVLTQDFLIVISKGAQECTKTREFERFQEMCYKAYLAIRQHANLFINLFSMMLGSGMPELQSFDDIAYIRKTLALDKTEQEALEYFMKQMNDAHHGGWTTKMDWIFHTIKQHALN
Assay: PI3K α (p110α/p85α) inhibition assay
pIC50: −log10 of the molar value.
Measurement Label: pIC50

Recorded pIC50, per entry:
> print(dat)
                                        mol                        assay.target  measurement.label  reported.result
1         CNc1nc(C)c2cc(-c3cccc(O)c3)ccc2n1  PI3K α (p110α/p85α) (Homo sapiens)              pIC50           > 6.30
2  Cc1nc(Nc2cccnc2)nc2ccc(-c3cccc(O)c3)cc12  PI3K α (p110α/p85α) (Homo sapiens)              pIC50           > 7.00

## Input Query: pIC50; subject: CNc1nc(C)c2cc(-c3ccc(F)c(O)c3)ccc2n1
## Output > 6.00

## Input Param item: CNc1nc(C)c2cc(-c3cc(O)cc(F)c3)ccc2n1
## Output > 6.30

* * *

Assay Target: PI3K δ (p110δ/p85α) (Homo sapiens, UniProt O00329)
Construct: purchased Upstate
Sequence (O00329 whole entry, one chain of several): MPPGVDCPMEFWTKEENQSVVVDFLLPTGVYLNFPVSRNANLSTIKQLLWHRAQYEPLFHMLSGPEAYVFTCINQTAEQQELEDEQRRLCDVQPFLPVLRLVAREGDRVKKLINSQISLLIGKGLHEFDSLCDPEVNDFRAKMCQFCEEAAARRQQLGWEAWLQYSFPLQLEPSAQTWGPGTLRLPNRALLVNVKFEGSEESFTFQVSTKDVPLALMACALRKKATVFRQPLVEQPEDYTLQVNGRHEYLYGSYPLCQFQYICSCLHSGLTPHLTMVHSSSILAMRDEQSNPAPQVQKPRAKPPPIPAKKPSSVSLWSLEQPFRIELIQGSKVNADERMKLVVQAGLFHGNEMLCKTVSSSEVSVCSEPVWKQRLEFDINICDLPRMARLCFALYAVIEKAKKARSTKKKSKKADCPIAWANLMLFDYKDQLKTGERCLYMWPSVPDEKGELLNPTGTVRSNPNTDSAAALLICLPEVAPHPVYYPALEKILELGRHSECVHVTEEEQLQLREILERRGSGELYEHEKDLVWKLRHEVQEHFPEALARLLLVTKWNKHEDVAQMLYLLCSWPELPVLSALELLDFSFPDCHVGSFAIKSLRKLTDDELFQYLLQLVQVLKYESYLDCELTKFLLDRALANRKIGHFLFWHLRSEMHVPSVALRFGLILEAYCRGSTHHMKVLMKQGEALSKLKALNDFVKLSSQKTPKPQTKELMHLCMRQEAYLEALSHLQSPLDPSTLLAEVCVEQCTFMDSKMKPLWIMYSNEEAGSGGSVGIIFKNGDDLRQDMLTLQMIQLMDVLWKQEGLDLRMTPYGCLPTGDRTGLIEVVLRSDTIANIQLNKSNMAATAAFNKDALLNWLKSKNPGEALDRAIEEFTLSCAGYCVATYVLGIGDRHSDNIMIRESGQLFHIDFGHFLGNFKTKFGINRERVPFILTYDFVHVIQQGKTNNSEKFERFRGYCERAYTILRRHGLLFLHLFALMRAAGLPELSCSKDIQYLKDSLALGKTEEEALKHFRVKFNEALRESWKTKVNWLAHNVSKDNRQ
Assay: PI3K δ (p110δ/p85α) inhibition assay
Format: biochemical
Protocol: IC50 values are measured using either a standard TLC assay for lipid kinase activity (described below) or a high-throughput membrane capture assay. […] The TLC plates are then dried, exposed to a phosphorimager screen (Storm, Amersham), and quantitated. Other commercial kits or systems for assaying PI3-K activities are avaiable. […] The plate is sealed, incubated for 1 hour at room temperature, and then read on an appropriate plate reader. Data is analyzed and IC50s are generated using GraphPad Prism 5.
pIC50: −log10 of the molar value.
Measurement Label: pIC50

## Input Kindly state the measured pIC50 obtained for CNc1nc(C)c2cc(-c3cc(O)cc(F)c3)ccc2n1 [Compound 8] with PI3K δ (p110δ/p85α) (Homo sapiens, UniProt O00329).
## Output > 7.00

Attribution: patent US9359349B2
